# Experimental Details: OD615 S. cerevisiae growth inhibition, permissive medium, pilot counter-assay, permissive growth control for S. cerevisiae lifespan shortening project (AID 705)
# Test Parameters: OD615, 24 h, at 10 µM, active compounds read high
Activity calls are given as the source filed them.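 Rule for the calls: active = growth inhibition above 25% in both replicates, a cutoff set 3 SD above the mean; inconclusive = above 25% in only one replicate; inactive = the rest.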
Recorded growth inhibition for the following compounds

Known growth inhibition results, listed for orientation:
1) CCOC(=O)c1ccc(NCn2c(=O)oc3ccccc32)cc1 | -8.51% (inactive)
2) Cc1cc(C)cc(N(CC(=O)N2CCN(c3ccccc3)CC2)S(=O)(=O)c2c(C)noc2C)c1 | -14.4% (inactive)
3) COc1cccc(C2CC(c3ccccc3C)n3nc(N)nc3N2)c1 (stereo unspecified) | -7.81% (inactive)
4) COc1cccc(-c2nn(C)c3sc(C(=O)N4CCOCC4)cc23)c1 | 6.62% (inactive)
5) Cc1ccc(-c2nc(CS(=O)(=O)CC(=O)NC3CCCCC3C)c(C)o2)cc1 (stereo unspecified) | -15.3% (inactive)
6) CCSc1nnc(-c2ccc(Cl)cc2Cl)o1 | -10.3% (inactive)

So for O=C(CCS(=O)NCc1ccccc1)NCc1ccccc1 (stereo unspecified) , the logged growth inhibition turned out to be -7.98% (inactive)

So for `CCOC(=O)N1CCC(NC(=O)c2ccc(CS(=O)(=O)c3ccc(OC)cc3)o2)CC1` , the logged growth inhibition turned out to be 5.7% (inactive)

Values from PubChem BioAssay
